Cited source: patent US20250034151A1

System: MIA PaCa2 cells
Test: Anti-proliferative effect on MIA PaCa2 cells by Cell Titer-Glo
Format: cell-based
Details: Homo sapiens, MIA PaCa-2, 72 h, 3 days, read-out: MIA PaCa 2 (IC50, inhibition of proliferation in vitro)
Method: Test Example 2: Evaluation of Cell Proliferation Inhibitory Activity 2. Evaluation of the Anti-Proliferative Effect of Compounds on MIA PaCa2 Cells by the Cell Titer-Glo Method Compound solutions of different concentration gradients were prepared. […] was used to calculate the rate of inhibition of the cells by different concentrations of the compounds. The IC50 of the compound on cell activity inhibition was calculated by fitting a log(inhibitor) vs. response-Variable slope model to GraphPad Prism 6. […]
quantity-kind: IC50

Tell us which IC50 value is on record for `C=CCN1C2CC1CN(c1ccc(Nc3ncc4c(=O)n(CC=C)n(-c5cccc(C(C)(C)O)n5)c4n3)cc1)C2` 100 to 1000 nM

Tell us which IC50 value is on record for `C=CCn1c(=O)c2cnc(Nc3ccc4c(c3)CN(C3CCN(C)CC3)C4=O)nc2n1-c1cccc(N=S(C)(C)=O)n1` 2000 to 5000 nM

Tell us which IC50 value is on record for `C=CCn1c(=O)c2cnc(Nc3ccc(N4C[C@H]5C[C@@H](C4)N5C)cc3)nc2n1-c1cccc(N=S(C)(C)=O)n1` ≤ 100 nM

Tell us which IC50 value is on record for `C=CCn1c(=O)c2cnc(Nc3ccc(N4CCN(C)c5ccccc54)cc3)nc2n1-c1cccc(C(C)(C)O)n1` > 10000 nM

Tell us which IC50 value is on record for `C=CCn1c(=O)c2cnc(Nc3ccc(N4C[C@@H]5C[C@H]4CN5C(C)C)cc3)nc2n1-c1cccc(C(C)(C)O)n1` 100 to 1000 nM

Tell us which IC50 value is on record for `C=CCn1c(=O)c2cnc(Nc3ccc(N4CC5CC(C4)N5C4CN(C)C4)cc3)nc2n1-c1cccc(C(C)(C)O)n1` > 10000 nM

Tell us which IC50 value is on record for `C=CCn1c(=O)c2cnc(Nc3ccc(N4C[C@@H]5C[C@H]4CN5C)c(C)c3)nc2n1-c1cccc(C(C)(C)O)n1` 100 to 1000 nM
